B1: LINE1-mini (parent)
chain: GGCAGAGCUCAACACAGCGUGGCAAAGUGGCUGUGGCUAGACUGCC

- Variants of: B1
- protocol.details: self-cleavage, relative activity (ratio to wild type); higher = more cleavage; in vitro, sequencing; the parent is a self-cleaving ribozyme
Note to self: values exactly at 0.2 are fulfilled. So self-cleavage at or above 0.2 is fulfilled, below is not fulfilled.

mutant.code	discrete.label
G5A C45G	not fulfilled
U28G G33C	not fulfilled
A14G G40U	not fulfilled
C18A G33C	not fulfilled
G17U U20C	fulfilled

Test whether the variant U38G C42G records self-cleavage of 0.2 or higher.
not fulfilled

// inclusive: self-cleavage at least 0.2? input: C42A
not fulfilled

Quick check: does G1U U43A have self-cleavage greater than or equal to 0.2?
not fulfilled

Entry G17A : is its self-cleavage no less than 0.2?
not fulfilled

In plain terms: is recorded self-cleavage at least 0.2 for U20A G35C ?
not fulfilled

State whether the measured self-cleavage reaches 0.2, counting equality as reaching it, for G7C U9G
fulfilled

Item A12C U43G with self-cleavage of 0.2 or above?
not fulfilled

Hello, I need to know if U28G C46U has measured self-cleavage not below 0.2. Thanks!
fulfilled

// inclusive: self-cleavage at least 0.2? input: G35C A39G
not fulfilled

Is self-cleavage for A6U G33A at or above 0.2?
not fulfilled
